B1: INTS3 (parent)
chain: FSDDEEDLNSKGKKREFRFHPIKE

# Variants of: B1
# TEST DESCRIPTION: protein stability index of a GFP-peptide fusion (GPS, HEK-293T) (PSI 1-6); higher = more stable;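 note: lentivirally expressed fusions sorted by FACS into six bins by GFP to DsRed ratio, PSI derived from sequencing read proportions per bin multiplied by bin number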
# EXPERIMENTAL SETUP: c terminus: a fixed tail appended
PROPERTY: protein stability index
API note: the answer field is a bare number with no unit suffix.

MUTANT ID: H20G
protein stability index: 4.34

MUTANT ID: G12N
protein stability index: 2.83

MUTANT ID: D3L
protein stability index: 2.23

MUTANT ID: D7I
protein stability index: 2.12

MUTANT ID: S2Y
protein stability index: 2.43

MUTANT ID: K13T
protein stability index: 3.11

MUTANT ID: K13I
protein stability index: 2.31

MUTANT ID: E6W
protein stability index: 2.32

MUTANT ID: D7H
protein stability index: 2.52

MUTANT ID: L8R
protein stability index: 2.94

Qu. What does the record list as protein stability index for H20D ?
Ans. 5.39

Qu. // next record F1I
Ans. 3.2

Qu. // next record D7S
Ans. 2.66

Qu. // next record K14Y
Ans. 2.48
